Test system: Enterococcus sp.
protocol-details: In vitro antibacterial evaluation: minimum inhibitory concentration (MIC), broth dilution method
Type: cell-based
condition-set: Enterococcus faecalis (ATCC 29212); 18 hours at 35° C.
// reported MIC Enterococcus faecalis (ATCC 29212) per item
parameter-measured: MIC Enterococcus faecalis (ATCC 29212) (µg/mL)

1. CC(c1ccccc1)C1NC(=O)CNC(=O)C(CO)NC(=O)C(C(O)C2CNC(=N)N2C2OC(CO)C(O)C(O)C2O)NC(=O)C(C(O)C2CNC(=N)N2)NC(=O)C(Cc2ccc(OC3OC(CO)C(OC4OC5COC(c6ccc(C(=O)c7ccc(I)cc7)cc6)OC5C(O)C4O)C(O)C3O)cc2)NC1=O (stereo not drawn) [Example 186]; 2
2. CC(c1ccc(Cl)cc1)C1NC(=O)CNC(=O)C(CO)NC(=O)C(C(O)C2CNC(=N)N2C2OC(CO)C(O)C(O)C2O)NC(=O)C(C(O)C2CNC(=N)N2)NC(=O)C(Cc2ccc(OC3OC(CO)C(OC4OC5COC(C6CCCCC6)OC5C(O)C4O)C(O)C3O)cc2)NC1=O (stereo not drawn) [Example 193]; 1
3. CC(c1ccccc1)C1NC(=O)CNC(=O)C(CO)NC(=O)C(C(O)C2CNC(=N)N2C2OC(CO)C(O)C(O)C2O)NC(=O)C(C(O)C2CNC(=N)N2)NC(=O)C(Cc2ccc(OC3OC(CO)C(OC4OC5COC6(CCC(C(C)(C)C)CC6)OC5C(O)C4O)C(O)C3O)cc2)NC1=O (stereo not drawn) [Example 208]; 8

###

Tested on: Enterococcus sp.
protocol-details: In vitro antibacterial evaluation: minimum inhibitory concentration (MIC), broth dilution method
Type: cell-based
condition-set: broth dilution, 5×10^5 CFU/mL, 18 hours at 35° C.
Items are presented alongside their recorded MIC Enterococccus avium (GC 4558).
parameter-measured: MIC Enterococccus avium (GC 4558) (µg/mL)

1) CC(c1ccccc1)C1NC(=O)CNC(=O)C(CO)NC(=O)C(C(O)C2CNC(=N)N2C2OC(CO)C(O)C(O)C2O)NC(=O)C(C(O)C2CNC(=N)N2)NC(=O)C(Cc2ccc(OC3OC(CO)C(OC4OC5COC(C67CC8CC(CC(C8)C6)C7)OC5C(O)C4O)C(O)C3O)cc2)NC1=O (centres unmarked); 2
2) Cc1ccc(CC2OCC3OC(OC4C(CO)OC(Oc5ccc(CC6NC(=O)C(C(C)c7ccccc7)NC(=O)CNC(=O)C(CO)NC(=O)C(C(O)C7CNC(=N)N7C7OC(CO)C(O)C(O)C7O)NC(=O)C(C(O)C7CNC(=N)N7)NC6=O)cc5)C(O)C4O)C(O)C(O)C3O2)cc1 (centres unmarked); 4
3) COC1CCC2(C)C(CCC3C2CCC2(C)C(C(C)CCC4OCC5OC(OC6C(CO)OC(Oc7ccc(CC8NC(=O)C(C(C)c9ccccc9)NC(=O)CNC(=O)C(CO)NC(=O)C(C(O)C9CNC(=N)N9C9OC(CO)C(O)C(O)C9O)NC(=O)C(C(O)C9CNC(=N)N9)NC8=O)cc7)C(O)C6O)C(O)C(O)C5O4)CCC32)C1 (centres unmarked); 16
4) CC(c1ccccc1)C1NC(=O)CNC(=O)C(CO)NC(=O)C(C(O)C2CNC(=N)N2C2OC(CO)C(O)C(O)C2O)NC(=O)C(C(O)C2CNC(=N)N2)NC(=O)C(Cc2ccc(OC3OC(CO)C(OC4OC5COC(CC6CCN(C(=O)OCc7ccccc7)CC6)OC5C(O)C4O)C(O)C3O)cc2)NC1=O (centres unmarked); 2
5) CC(c1ccccc1)C1NC(=O)CNC(=O)C(CO)NC(=O)C(C(O)C2CNC(=N)N2C2OC(CO)C(O)C(O)C2O)NC(=O)C(C(O)C2CNC(=N)N2)NC(=O)C(Cc2ccc(OC3OC(CO)C(OC4OC5COC(Cc6ccc(F)cc6)OC5C(O)C4O)C(O)C3O)cc2)NC1=O (centres unmarked); 4
6) CCCCOC(=O)CCC1OCC2OC(OC3C(CO)OC(Oc4ccc(CC5NC(=O)C(C(C)c6ccccc6)NC(=O)CNC(=O)C(CO)NC(=O)C(C(O)C6CNC(=N)N6C6OC(CO)C(O)C(O)C6O)NC(=O)C(C(O)C6CNC(=N)N6)NC5=O)cc4)C(O)C3O)C(O)C(O)C2O1 (centres unmarked); 8

###

// values below are reported median effective dose (ED50), Staphylococcus aureus-SMITH (GC 4543)
System: Staphylococcus aureus-SMITH (GC 4543)
protocol-details: Acute lethal infection in mice (ED50)
Assay type: in vivo
condition-set: female CD-1 mice, intraperitoneal challenge, intravenous dose 30 min. after infection, 7 day survival ratios
Numbered stars: 1 amine (or outer) side, 2 acyl side, 3 side chain; on linkers, the order of the positions; unused ones are H or OH. Square brackets hold non-standard residues; d marks the D form. Peptide text beside a SMILES is read from it. ξ: configuration not given here. X1 = N=C1NCC(C(O)C(N[*:1])C(=O)[*:2])N1C1OC(CO)C(O)C(O)C1O; ξEnduracididine(βξ-OH,4'ξ) = N=C1NCC(C(O)C(N)C(=O)O)N1; ξPhe(βξ-Me) = CC(c1ccccc1)C(N)C(=O)O
parameter-measured: median effective dose (ED50), Staphylococcus aureus-SMITH (GC 4543)

1. CC(c1ccccc1)C1NC(=O)CNC(=O)C(CO)NC(=O)C(C(O)C2CNC(=N)N2C2OC(CO)C(O)C(O)C2O)NC(=O)C(C(O)C2CNC(=N)N2)NC(=O)C(Cc2ccc(O)cc2)NC1=O (stereo not drawn) [Example 55] (cyclo(G[ξPhe(βξ-Me)]Y[ξEnduracididine(βξ-OH,4'ξ)][X1]S); configuration not given here); >8
2. Cc1ccc(CC2OCC3OC(OC4C(CO)OC(Oc5ccc(CC6NC(=O)C(C(C)c7ccccc7)NC(=O)CNC(=O)C(CO)NC(=O)C(C(O)C7CNC(=N)N7C7OC(CO)C(O)C(O)C7O)NC(=O)C(C(O)C7CNC(=N)N7)NC6=O)cc5)C(O)C4O)C(O)C(O)C3O2)cc1 (stereo not shown) [Example 119]; 0.19 mg/kg
3. Cc1cccc(C2OCC3OC(OC4C(CO)OC(Oc5ccc(CC6NC(=O)C(C(C)c7ccccc7)NC(=O)CNC(=O)C(CO)NC(=O)C(C(O)C7CNC(=N)N7C7OC(CO)C(O)C(O)C7O)NC(=O)C(C(O)C7CNC(=N)N7)NC6=O)cc5)C(O)C4O)C(O)C(O)C3O2)c1 (stereo not shown) [Example 135]; 0.07 mg/kg
4. CC(c1ccccc1)C1NC(=O)CNC(=O)C(CO)NC(=O)C(C(O)C2CN(Cc3ccccc3)C(=N)N2C2OC(CO)C(O)C(O)C2O)NC(=O)C(C(O)C2CNC(=N)N2)NC(=O)C(Cc2ccc(OC3OC(CO)C(OC4OC(CO)C(O)C(O)C4O)C(O)C3O)cc2)NC1=O (stereo not shown) [Example 59]; >8

###

System: Streptococcus sp.
protocol-details: In vitro antibacterial evaluation: minimum inhibitory concentration (MIC), broth dilution method
Type: cell-based
condition-set: strain GC 4564
Description: […]
parameter-measured: MIC Streptococcus agalactiae (GC 4564) (µg/mL)

1) COc1cc(C2OCC3OC(OC4C(CO)OC(Oc5ccc(CC6NC(=O)C(C(C)c7ccccc7)NC(=O)CNC(=O)C(CO)NC(=O)C(C(O)C7CNC(=N)N7C7OC(CO)C(O)C(O)C7O)NC(=O)C(C(O)C7CNC(=N)N7)NC6=O)cc5)C(O)C4O)C(O)C(O)C3O2)cc([N+](=O)[O-])c1O (stereo not shown); 32
2) CCCCCCCN1CC(C(O)C2NC(=O)C(C(O)C3CNC(=N)N3)NC(=O)C(Cc3ccc(OC4OC(CO)C(OC5OC6COC7(OC6C(O)C5O)C5CC6CC(C5)CC7C6)C(O)C4O)cc3)NC(=O)C(C(C)c3ccccc3)NC(=O)CNC(=O)C(CO)NC2=O)N(C2OC(CO)C(O)C(O)C2O)C1=N (stereo not shown); 0.25

###

Test system: Enterococcus sp.
protocol-details: In vitro antibacterial evaluation: minimum inhibitory concentration (MIC), broth dilution method
Format: cell-based
condition-set: broth dilution, 5×10^5 CFU/mL, 18 hours at 35° C.
Form field: MIC Enterococccus faecalis (GC 6189) (one value per entry).
parameter-measured: MIC Enterococccus faecalis (GC 6189) (µg/mL)

1) CC(C)=CCCC(C)C1OCC2OC(OC3C(CO)OC(Oc4ccc(CC5NC(=O)C(C(C)c6ccccc6)NC(=O)CNC(=O)C(CO)NC(=O)C(C(O)C6CNC(=N)N6C6OC(CO)C(O)C(O)C6O)NC(=O)C(C(O)C6CNC(=N)N6)NC5=O)cc4)C(O)C3O)C(O)C(O)C2O1 (centres unmarked); 32
2) COC1CCC2(C)C(CCC3C2CCC2(C)C(C(C)CCC4OCC5OC(OC6C(CO)OC(Oc7ccc(CC8NC(=O)C(C(C)c9ccccc9)NC(=O)CNC(=O)C(CO)NC(=O)C(C(O)C9CNC(=N)N9C9OC(CO)C(O)C(O)C9O)NC(=O)C(C(O)C9CNC(=N)N9)NC8=O)cc7)C(O)C6O)C(O)C(O)C5O4)CCC32)C1 (centres unmarked); 32
3) N=C1NCC(C(O)C2NC(=O)C(Cc3ccc(OC4OC(CO)C(OC5OC6COC7(OC6C6OC8(OC56)C5CC6CC(C5)CC8C6)C5CC6CC(C5)CC7C6)C(O)C4O)cc3)NC(=O)C(CC3CCCCC3)NC(=O)CNC(=O)C(CO)NC(=O)C(C(O)C3CNC(=N)N3C3OC(CO)C(O)C(O)C3O)NC2=O)N1 (centres unmarked) [Example 106b]; 8
4) CC(c1ccccc1)C1NC(=O)CNC(=O)C(CO)NC(=O)C(C(O)C2CNC(=N)N2C2OC(CO)C(O)C(O)C2O)NC(=O)C(C(O)C2CNC(=N)N2)NC(=O)C(Cc2ccc(OC3OC(CO)C(OC4OC5COC(c6ccccc6)OC5C(O)C4O)C(O)C3O)cc2)NC1=O (centres unmarked); 2

Source listed as patent US8247211B2.
